Tested on: HEK293
EXPERIMENTAL PROTOCOL: Cytotoxic Profiling of Annotated Libraries Using Quantitative High-Throughput Screening (AID 1296008); further: on the % scale 0 is the no-effect control and ±100 the full control effect; nearly all actives have a fitted effect of over 60% in size
CONDITION CONTEXT: Five cell lines viability, CellTiter-Glo ATP luminescence, 48-72 h; active compounds read low
Records with an inconclusive call do not appear.
MEASURED ENDPOINT: max response (%)

{"columns": ["COMPOUND", "MEASURED ENDPOINT", "UNIT NAME", "RESULT VALUE"],
 "data": [
  ["CC(C)[C@@H](CN1CC[C@@](C)(c2cccc(O)c2)[C@@H](C)C1)NC(=O)[C@H]1Cc2ccc(O)cc2CN1", "max response", "%", -18.6],
  ["CN1CCC[C@@H]1Cc1c[nH]c2ccc(Nc3ncccc3[N+](=O)[O-])cc12", "max response", "%", -20.4],
  ["COc1cc2c(cc1OC)[C@@]13CCN4CC5=CCO[C@H]6CC(=O)N2[C@H]1[C@H]6[C@H]5C[C@H]43", "max response", "%", -25.1],
  ["O=C(N1CCOCC1)N1CCN(c2ccc(Cl)cc2)CC1", "max response", "%", -0.253],
  ["CC(C)C1(OO)C=C2C(=O)CC3C(C)(C(=O)O)CCCC3(C)C2CC1 (stereo not drawn)", "max response", "%", 2.31],
  ["C=C(CO)C(=O)O[C@H]1C/C(C)=C/CC/C(CO)=C/[C@H]2OC(=O)C(=C)[C@H]12", "max response", "%", -5.5],
  ["COc1cc(C(=O)O[C@H]2[C@@H]3C=CO[C@@H](O[C@@H]4O[C@H](CO)[C@@H](O)[C@H](O)[C@H]4O)[C@@H]3[C@@]3(CO)O[C@@H]23)ccc1O", "max response", "%", 4.28],
  ["CC[C@H]1CN2CC[C@H]1C[C@H]2[C@H](O)c1ccnc2ccc(OC)cc12", "max response", "%", -14.1]
]}
